Just for reference, the RNAGym collection of RNA variant scans (doi:10.1126/science.aae0568) is where these values come from.

B1: tRNA (parent)
chain: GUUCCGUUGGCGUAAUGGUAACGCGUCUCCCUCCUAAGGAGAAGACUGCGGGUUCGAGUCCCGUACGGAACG

# Variants of: B1
# ASSAY METHOD TEXT: yeast fitness relative to wild type (ratio to wild type); higher = fitter; tRNA-Arg(CCU), competitive growth, 37 C, YPD
This sample holds only a part of the variants without activity.
yeast fitness by entry:
Keep it simple and answer with nothing but the number.

Please review the entries below; each comes with its answer.
C33G A42G G52A C62A A70U : 0.589
U2A U16G C66A : 0.625
C5G G10A A37C G56A : 0.567

variant C5U C11A A45G , yeast fitness observed: 0.537

variant A14G C62G , yeast fitness observed: 0.688
